Sourced from patent US10596264B2

System: human CD34+ cells
Assay type: cell-based
parameter_measured: Transduction efficiency compared with LAH4-L1 (in words)

# sequence_content, assay_value
rows = [
    ("ALLAHALHLLALLALHLAHALA (LAH4-L1-dK) [LAH4-L 1-dK]", "not detectable"),
    ("ALLAHALHLLALLALHLAHALKKA (LAH4-L1-dKN)", "not detectable"),
]

====

Please consider the recorded Cytotoxicity (mortality, 7-AAD) for hCD34+ cells in what follows.
Where no end group is shown, it is not given here.
parameter_measured: Cytotoxicity (mortality, 7-AAD)

# substance, assay_value
data = [
    ("KKALLHAALAHLLALAAALLALLKKA-NH2 [LAH2-A6]", "no apparent cytotoxicity"),
    ("KKALLHAALAHLLALAHHLLALLKKA-NH2 [LAH4-A4]", "no apparent cytotoxicity"),
    ("RRALLAHALHLLALLALHLAHALRRA-NH2 [LAH4-L1-R]", "no apparent cytotoxicity"),
]
